Catalogue of pIC50 values
Tested on: Colon cell
Experiment: Inhibitory activity against Colon cell line
Type: functional, cell-based
Settings: Homo sapiens, Colon cell
pIC50: −log10 of the molar value.

| Substance Smiles | Qualifier Operator | pIC50 |
| --- | --- | --- |
| COc1cc([C@@H]2c3[nH]c4ccccc4c3C[C@H]3C(=O)N4CCC[C@H]4C(=O)N23)cc(OC)c1OC | = | 4.13 |
| O=C1[C@H](Cc2c[nH]c3ccccc23)N(Cc2ccccc2)C(=O)[C@@H]2CCCN12 | < | 4.00 |
| COc1cc([C@@H]2c3[nH]c4ccccc4c3C[C@H]3C(=O)N4CCC[C@H]4C(=O)N23)cc(OC)c1O | < | 4.00 |
| O=C1[C@@H]2CCCN2C(=O)[C@H](Cc2c[nH]c3ccccc23)N1C/C=C/c1ccccc1 | = | 4.45 |
